tested target: Nav1.5 voltage-gated sodium channels (Homo sapiens)
Construct: said cells express, inter alia, functional Nav1.5 voltage-gated sodium channels; endogenous in cells
Sequence (Q14524 1-2016 isoform Q14524-4): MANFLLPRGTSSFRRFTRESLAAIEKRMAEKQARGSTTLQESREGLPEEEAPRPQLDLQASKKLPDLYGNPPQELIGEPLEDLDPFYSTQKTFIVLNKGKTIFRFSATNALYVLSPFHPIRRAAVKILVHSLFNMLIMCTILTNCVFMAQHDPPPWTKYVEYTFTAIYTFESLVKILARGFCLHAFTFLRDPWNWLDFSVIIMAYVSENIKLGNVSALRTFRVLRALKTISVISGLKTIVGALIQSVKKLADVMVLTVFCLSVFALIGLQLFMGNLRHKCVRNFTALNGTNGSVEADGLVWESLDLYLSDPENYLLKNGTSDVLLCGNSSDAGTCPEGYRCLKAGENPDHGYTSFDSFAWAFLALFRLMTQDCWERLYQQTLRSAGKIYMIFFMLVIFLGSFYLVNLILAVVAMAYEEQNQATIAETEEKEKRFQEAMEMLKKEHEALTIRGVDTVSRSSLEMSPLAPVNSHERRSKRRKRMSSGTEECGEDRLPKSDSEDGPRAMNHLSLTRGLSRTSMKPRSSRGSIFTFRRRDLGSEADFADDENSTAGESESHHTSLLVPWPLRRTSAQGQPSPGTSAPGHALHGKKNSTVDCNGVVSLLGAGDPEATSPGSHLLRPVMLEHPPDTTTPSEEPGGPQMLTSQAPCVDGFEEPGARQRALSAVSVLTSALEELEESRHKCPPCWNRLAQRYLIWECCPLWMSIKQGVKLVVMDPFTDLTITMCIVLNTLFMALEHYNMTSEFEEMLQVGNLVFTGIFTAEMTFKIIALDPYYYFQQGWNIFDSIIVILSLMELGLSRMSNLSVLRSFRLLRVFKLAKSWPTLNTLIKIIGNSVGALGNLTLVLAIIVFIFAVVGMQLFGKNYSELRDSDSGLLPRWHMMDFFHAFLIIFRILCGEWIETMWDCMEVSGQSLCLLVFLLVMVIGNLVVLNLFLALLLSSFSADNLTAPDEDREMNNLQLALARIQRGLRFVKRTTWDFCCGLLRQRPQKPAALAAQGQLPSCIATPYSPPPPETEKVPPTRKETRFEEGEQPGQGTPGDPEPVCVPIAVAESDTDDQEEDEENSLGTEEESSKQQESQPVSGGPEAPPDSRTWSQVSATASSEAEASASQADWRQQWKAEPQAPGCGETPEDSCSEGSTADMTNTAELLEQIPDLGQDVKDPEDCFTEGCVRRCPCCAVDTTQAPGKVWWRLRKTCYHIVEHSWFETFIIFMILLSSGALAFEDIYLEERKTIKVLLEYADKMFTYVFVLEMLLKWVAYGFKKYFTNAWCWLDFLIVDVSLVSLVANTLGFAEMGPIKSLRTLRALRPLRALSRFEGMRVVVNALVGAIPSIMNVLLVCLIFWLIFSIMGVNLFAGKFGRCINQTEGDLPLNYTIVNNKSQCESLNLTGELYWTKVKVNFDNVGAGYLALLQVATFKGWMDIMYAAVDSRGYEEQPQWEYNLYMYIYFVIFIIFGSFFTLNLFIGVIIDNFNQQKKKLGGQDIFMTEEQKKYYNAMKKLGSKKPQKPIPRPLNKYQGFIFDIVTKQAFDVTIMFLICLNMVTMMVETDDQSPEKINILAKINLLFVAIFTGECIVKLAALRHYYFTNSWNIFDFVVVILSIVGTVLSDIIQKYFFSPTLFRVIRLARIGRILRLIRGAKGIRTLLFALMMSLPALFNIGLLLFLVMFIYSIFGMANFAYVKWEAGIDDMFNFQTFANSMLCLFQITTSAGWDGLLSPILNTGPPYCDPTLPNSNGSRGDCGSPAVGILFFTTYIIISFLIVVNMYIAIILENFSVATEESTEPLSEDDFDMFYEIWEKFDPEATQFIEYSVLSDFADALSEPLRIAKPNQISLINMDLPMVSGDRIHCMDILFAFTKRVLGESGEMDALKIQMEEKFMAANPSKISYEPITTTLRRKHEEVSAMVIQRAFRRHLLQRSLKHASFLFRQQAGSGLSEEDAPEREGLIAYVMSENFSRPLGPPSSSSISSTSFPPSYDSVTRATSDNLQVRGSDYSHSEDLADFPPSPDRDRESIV
assay notes: Whole-cell patch-clamp, repeated depolarisation protocol, MDA-MB-231 cells
measurement setup: MDA-MB-231 cells, whole cell patch-clamp, concentration-dependent; read-out: reduction of the metastatic Nav1.5 current (IC50)
measurement kind: pIC50
One number for each entry, as −log10 of the molar value.

### Prompt Answer with the recorded pIC50 for the compound listed here: COc1ccccc1SC[C@@H](C)CN[C@@H]1COc2ccccc2SC1
### Response 5.82
